# target.under.test: bovine pancreatic trypsin (bovine)
# method.summary: enzyme inhibition assay (chromogenic substrate), Lineweaver-Burk plots and replot of the slopes; trypsin 400 nM pre-incubated with the inhibitor for 30 min; 100 mM Tris-HCl pH 8.0, 10 mM CaCl2, 25°C; substrate Nα-benzoyl-L-arginine 4-nitroanilide 0.1 to 0.8 mM; p-nitroaniline read at 405 nm for 5 min
# reported Ki; entries follow
measurement.label: Ki (nM)

>  <binder>
SdPI G13F mutant (peptide) KNKCQLPSDVGKFKASFTRYYYNEEGGKCETFIYGGVGGNSNNFLTKEDCCRECAQGSC

>  <reading>
260

$$$$
>  <binder>
SdPI Ala15Phe mutant (peptide) KNKCQLPSDVGKGKFSFTRYYYNEEGGKCETFIYGGVGGNSNNFLTKEDCCRECAQGSC

>  <reading>
62000

$$$$
>  <binder>
recombinant SdPI peptide (scorpion-derived protease inhibitor), wild type (peptide) KNKCQLPSDVGKGKASFTRYYYNEEGGKCETFIYGGVGGNSNNFLTKEDCCRECAQGSC

>  <reading>
160

$$$$
>  <binder>
SdPI K12A mutant (peptide) KNKCQLPSDVGAGKASFTRYYYNEEGGKCETFIYGGVGGNSNNFLTKEDCCRECAQGSC

>  <reading>
290

$$$$
